// provenance: patent US20040082635A1

The entries below come with measured IC50 values attached.
# MEASURED_ON: HCV polymerase (Hepatitis C virus genotype 1b)
# Construct: a region encoding NS5B (591 amino acids; J Virol 1991 Mar, 65(3), 1105-13) was amplified by PCR; 6 His (N); made in house; host or cells: Escherichia coli
# EXPERIMENTAL_PROTOCOL: biochemical
# CONDITION_DETAILS: read-out: HCV polymerase inhibitory activity IC50
Where a name gives a salt, the structure may show the parent alone.

MOLECULE: CC(C)NC(=O)c1ccc(-c2ccc(Cl)cc2)c(COc2ccc(-c3nc4cc(C(=O)O)ccc4n3C3CCCC3)c(F)c2)c1 [Example 412, hydrochloride]
READOUT_UNIT: nM
IC50: 19

MOLECULE: N#Cc1ccc(-c2ccc(Cl)cc2)c(COc2ccc(-c3nc4cc(C(=O)O)ccc4n3C3CCCCC3)cc2)c1
READOUT_UNIT: nM
IC50: 18

MOLECULE: Cc1nc(COc2cccc(Oc3ccc(-c4nc5cc(C(=O)O)ccc5n4C4CCCCC4)cc3)c2)cs1
READOUT_UNIT: nM
IC50: 73

MOLECULE: CS(=O)(=O)N1CCC(COc2cccc(Oc3ccc(-c4nc5cc(C(=O)O)ccc5n4C4CCCCC4)cc3)c2)CC1
READOUT_UNIT: nM
IC50: 44

MOLECULE: O=C(O)c1ccc2c(c1)nc(-c1ccc(OCc3cccc4ccccc34)cc1)n2C1CCCCC1
READOUT_UNIT: nM
IC50: 130

MOLECULE: O=C(O)c1ccc2c(c1)nc(-c1ccc(COc3ccccc3-c3ccccc3)o1)n2C1CCCCC1
READOUT_UNIT: nM
IC50: 650

MOLECULE: CC(C)(C)NC(=O)c1ccc(-c2ccc(Cl)cc2)c(COc2ccc(-c3nc4cc(C(=O)O)ccc4n3C3CCCCC3)c(F)c2)c1 [Example 379, hydrochloride]
READOUT_UNIT: nM
IC50: 21

MOLECULE: CS(=O)(=O)Nc1ccc(-c2ccc(Cl)cc2)c(COc2ccc(-c3nc4cc(C(=O)O)ccc4n3C3CCCCC3)cc2)c1
READOUT_UNIT: nM
IC50: 14

MOLECULE: O=C(O)c1ccc2c(c1)nc(-c1ccc(Oc3cccc(OC4CCOCC4)c3)cc1)n2C1CCCCC1
READOUT_UNIT: nM
IC50: 120

MOLECULE: O=C(O)c1ccc2c(c1)nc(-c1ccc(OCc3ccc(C(=O)NCCO)cc3-c3ccc(Cl)cc3)cc1)n2C1CCCCC1 [Example 355, hydrochloride]
READOUT_UNIT: nM
IC50: 15

MOLECULE: O=C(O)c1ccc2c(c1)nc(-c1ccc(OCc3cc(C(=O)NCc4ccccn4)ccc3-c3ccc(Cl)cc3)cc1)n2C1CCCCC1 [Example 323, dihydrochloride]
READOUT_UNIT: nM
IC50: 18

MOLECULE: CC(C)CCOc1ccccc1Oc1ccc(-c2nc3cc(C(=O)O)ccc3n2C2CCCCC2)cc1
READOUT_UNIT: nM
IC50: 560

MOLECULE: O=C(O)c1ccc2c(c1)nc(-c1ccc(OCc3cc(N4CCCS4(=O)=O)ccc3-c3ccc(Cl)cc3)cc1F)n2C1CCCCC1 [Example 446, hydrochloride]
READOUT_UNIT: nM
IC50: 16

* * *

# MEASURED_ON: HCV polymerase (Hepatitis C virus genotype 1b)
# Construct: a region encoding NS5B (591 amino acids; J Virol 1991 Mar, 65(3), 1105-13) was amplified by PCR; 6 His (N); made in house; host or cells: Escherichia coli
# EXPERIMENTAL_PROTOCOL: biochemical
# CONDITION_DETAILS: read-out: HCV polymerase inhibitory activity IC50
Structures can show the parent of a compound that is named as a salt.
The entries below come with measured IC50 values attached.
ENDPOINT: IC50 (µM)

COMPOUND: CC(C)(C)c1ccc(COc2cccc(Oc3ccc(-c4nc5cc(C(=O)O)ccc5n4C4CCCCC4)cc3)c2)cc1 [Example 212]
ENDPOINT: IC50
READOUT_UNIT: µM
ENDPOINT_RESULT: 0.23
--
COMPOUND: CN(C)C(=O)c1ccc(COc2ccc(-c3nc4cc(C(=O)O)ccc4n3C3CCCCC3)cc2)c(-c2ccc(Cl)cc2)c1 [Example 357, hydrochloride]
ENDPOINT: IC50
READOUT_UNIT: µM
ENDPOINT_RESULT: 0.019
--
COMPOUND: O=C(O)c1cc(OCc2ccncc2)cc(Oc2ccc(-c3nc4cc(C(=O)O)ccc4n3C3CCCCC3)cc2)c1 [Example 260, dihydrochloride]
ENDPOINT: IC50
READOUT_UNIT: µM
ENDPOINT_RESULT: 0.27
--
COMPOUND: O=C(O)c1ccc2c(c1)nc(-c1ccc(OC(Cc3ccccc3)Cc3ccccc3)cc1)n2C1CCCCC1 [Example 90]
ENDPOINT: IC50
READOUT_UNIT: µM
ENDPOINT_RESULT: 0.2
--
COMPOUND: CC(C)NC(=O)Nc1ccc(-c2ccc(Cl)cc2)c(COc2ccc(-c3nc4cc(C(=O)O)ccc4n3C3CCCCC3)c(F)c2)c1 [Example 395, hydrochloride]
ENDPOINT: IC50
READOUT_UNIT: µM
ENDPOINT_RESULT: 0.016
--
COMPOUND: Cc1nc(-c2ccc(S(C)(=O)=O)cc2)c(COc2ccc(-c3nc4cc(C(=O)O)ccc4n3C3CCCCC3)cc2)s1 [Example 217]
ENDPOINT: IC50
READOUT_UNIT: µM
ENDPOINT_RESULT: 0.058

* * *

The entries below come with measured pIC50 values attached.
# MEASURED_ON: HCV polymerase (Hepatitis C virus genotype 1b, UniProt P26663)
# Construct: a region encoding NS5B (591 amino acids; J Virol 1991 Mar, 65(3), 1105-13) was amplified by PCR; 6 His (N); made in house; host or cells: Escherichia coli
# Sequence (P26663 2420-3010): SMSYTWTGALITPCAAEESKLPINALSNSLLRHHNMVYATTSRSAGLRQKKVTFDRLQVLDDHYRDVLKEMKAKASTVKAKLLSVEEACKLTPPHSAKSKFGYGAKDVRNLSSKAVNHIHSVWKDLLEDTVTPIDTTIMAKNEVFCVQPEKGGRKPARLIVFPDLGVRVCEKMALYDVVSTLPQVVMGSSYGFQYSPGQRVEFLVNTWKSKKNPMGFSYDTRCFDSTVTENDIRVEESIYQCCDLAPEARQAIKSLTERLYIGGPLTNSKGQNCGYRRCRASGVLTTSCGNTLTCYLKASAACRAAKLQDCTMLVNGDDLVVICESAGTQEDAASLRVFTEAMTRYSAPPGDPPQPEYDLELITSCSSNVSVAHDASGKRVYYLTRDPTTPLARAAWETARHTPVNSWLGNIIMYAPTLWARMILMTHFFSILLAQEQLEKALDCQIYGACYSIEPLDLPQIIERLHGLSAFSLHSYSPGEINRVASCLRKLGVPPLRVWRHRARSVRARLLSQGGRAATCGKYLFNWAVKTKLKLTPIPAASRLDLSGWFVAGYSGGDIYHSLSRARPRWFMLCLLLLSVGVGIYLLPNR
# EXPERIMENTAL_PROTOCOL: biochemical
# CONDITION_DETAILS: read-out: HCV polymerase inhibitory activity IC50
pIC50: −log10 of the molar value. Where a name gives a salt, the structure may show the parent alone.

MOLECULE: O=C(O)c1ccc2c(c1)nc(-c1ccc(OCc3cc(C(=O)Nc4ccccc4)ccc3-c3ccc(Cl)cc3)cc1)n2C1CCCCC1 [Example 332, hydrochloride]
pIC50: 7.64
//
MOLECULE: O=C(O)c1ccc2c(c1)nc(-c1ccc(OCCc3ccc4ccccc4c3)cc1)n2C1CCCCC1 [Example 85]
pIC50: 6.77
//
MOLECULE: O=C(O)c1ccc2c(c1)nc(-c1ccc(OCc3cc(N4CCCCC4=O)ccc3-c3ccc(Cl)cc3)cc1F)n2C1CCCCC1 [Example 371, hydrochloride]
pIC50: 7.82

* * *

# MEASURED_ON: HCV polymerase (Hepatitis C virus genotype 1b)
# Construct: a region encoding NS5B (591 amino acids; J Virol 1991 Mar, 65(3), 1105-13) was amplified by PCR; 6 His (N); made in house; host or cells: Escherichia coli
# EXPERIMENTAL_PROTOCOL: biochemical
# CONDITION_DETAILS: read-out: HCV polymerase inhibitory activity IC50
Where a name gives a salt, the structure may show the parent alone.
The entries below come with measured log10 of IC50 values attached.
ENDPOINT: log10 of IC50 (log10 of the value in nM)

COMPOUND: O=C(O)c1ccc2c(c1)nc(-c1ccc(Oc3cccc(O)c3)cc1)n2C1CCCCC1
MEASURED_ON: HCV polymerase (Hepatitis C virus genotype 1b)
log10 of IC50: 2.04
--
COMPOUND: CCN(c1ccc(-c2ccc(Cl)cc2)c(COc2ccc(-c3nc4cc(C(=O)O)ccc4n3C3CCCCC3)c(F)c2)c1)S(=O)(=O)CC [Example 465, hydrochloride]
MEASURED_ON: HCV polymerase (Hepatitis C virus genotype 1b)
log10 of IC50: 1.52
--
COMPOUND: CC(C)CNC(=O)c1ccc(-c2ccc(Cl)cc2)c(COc2ccc(-c3nc4cc(C(=O)O)ccc4n3C3CCCCC3)c(F)c2)c1 [Example 380, hydrochloride]
MEASURED_ON: HCV polymerase (Hepatitis C virus genotype 1b)
log10 of IC50: 1.36
--
COMPOUND: O=C(O)c1ccc2c(c1)nc(-c1ccc(OCc3cccnc3-c3ccc(Cl)cc3)cc1)n2C1CCCCC1 [Example 234, dihydrochloride]
MEASURED_ON: HCV polymerase (Hepatitis C virus genotype 1b)
log10 of IC50: 1.34
--
COMPOUND: O=C(O)c1ccc2c(c1)nc(-c1ccc(OCc3sc(CO)nc3-c3ccc(F)cc3)cc1)n2C1CCCCC1
MEASURED_ON: HCV polymerase (Hepatitis C virus genotype 1b)
log10 of IC50: 1.58
--
COMPOUND: COc1ccc(-c2ccc(Cl)cc2)c(COc2ccc(-c3nc4cc(S(=O)(=O)O)ccc4n3C3CCCCC3)cc2)c1
MEASURED_ON: HCV polymerase (Hepatitis C virus genotype 1b)
log10 of IC50: 1.87
--
COMPOUND: CC(C)NC(=O)c1cccc(-c2ccc(Cl)cc2)c1COc1ccc(-c2nc3cc(C(=O)O)ccc3n2C2CCCCC2)c(F)c1 [Example 448, hydrochloride]
MEASURED_ON: HCV polymerase (Hepatitis C virus genotype 1b)
log10 of IC50: 2.30
--
COMPOUND: CC(C)NC(=O)c1ccc(-c2ccc(Cl)cc2)c(COc2ccc(-c3nc4cc(C(=O)O)ccc4n3C3CCSCC3)cc2)c1 [Example 416, hydrochloride]
MEASURED_ON: HCV polymerase (Hepatitis C virus genotype 1b)
log10 of IC50: 1.38
--
COMPOUND: CN(C)C(=O)c1ccc(-c2ccc(F)cc2)c(COc2ccc(-c3nc4cc(C(=O)O)ccc4n3C3CCCCC3)cc2)c1 [Example 360, hydrochloride]
MEASURED_ON: HCV polymerase (Hepatitis C virus genotype 1b)
log10 of IC50: 1.15
--
COMPOUND: CN(c1ccc(-c2ccc(Cl)cc2)c(COc2ccc(-c3nc4cc(C(=O)O)ccc4n3C3CCCCC3)c(F)c2)c1)S(C)(=O)=O [Example 456, hydrochloride]
MEASURED_ON: HCV polymerase (Hepatitis C virus genotype 1b)
log10 of IC50: 1.23
--
COMPOUND: CC(C)NC(=O)c1ccc(COc2ccc(-c3nc4cc(C(=O)O)ccc4n3C3CCCCC3)cc2)c(-c2ccc(Cl)cc2)c1 [Example 350, hydrochloride]
MEASURED_ON: HCV polymerase (Hepatitis C virus genotype 1b)
log10 of IC50: 1.30
--
COMPOUND: CN(C)C(=O)c1cc(COc2ccc(-c3nc4cc(C(=O)O)ccc4n3C3CCCCC3)c(F)c2)cc(-c2ccc(Cl)cc2)c1 [Example 372, hydrochloride]
MEASURED_ON: HCV polymerase (Hepatitis C virus genotype 1b)
log10 of IC50: 1.52
--
COMPOUND: O=C(O)c1ccc(C(Oc2ccc(-c3nc4cc(C(=O)O)ccc4n3C3CCCCC3)c(F)c2)c2ccc(C(=O)O)cc2)cc1
MEASURED_ON: HCV polymerase (Hepatitis C virus genotype 1b)
log10 of IC50: 1.36
--
COMPOUND: O=C(O)c1ccc2c(c1)nc(-c1ccc(OCc3cc(OCC(=O)N4CCC(O)CC4)ccc3-c3ccc(Cl)cc3)cc1)n2C1CCCCC1
MEASURED_ON: HCV polymerase (Hepatitis C virus genotype 1b)
log10 of IC50: 1.23
--
COMPOUND: O=C(O)c1ccc2c(c1)nc(-c1ccc(OCc3cc(N4CCOC4=O)ccc3-c3ccc(Cl)cc3)cc1F)n2C1CCCCC1 [Example 423, hydrochloride]
MEASURED_ON: HCV polymerase (Hepatitis C virus genotype 1b)
log10 of IC50: 1.23
--
COMPOUND: CN(C)c1ccc(-c2ccc(Cl)cc2)c(COc2ccc(-c3nc4cc(C(=O)O)ccc4n3C3CCCCC3)cc2)c1
MEASURED_ON: HCV polymerase (Hepatitis C virus genotype 1b)
log10 of IC50: 1.28
--
COMPOUND: O=C(O)COc1cccc(Oc2ccc(-c3nc4cc(C(=O)O)ccc4n3C3CCCCC3)cc2)c1
MEASURED_ON: HCV polymerase (Hepatitis C virus genotype 1b)
log10 of IC50: 2.63
--
COMPOUND: COC(=O)c1ccc2c(c1)nc(-c1ccc(OCc3cc(C(=O)N(C)C)ccc3-c3ccc(Cl)cc3)cc1F)n2C1CCCCC1
MEASURED_ON: HCV polymerase (Hepatitis C virus genotype 1b)
log10 of IC50: 2.00
--
COMPOUND: O=C(O)c1ccc2c(c1)nc(-c1ccc(Oc3cc(OCc4ccccc4)ncn3)cc1)n2C1CCCCC1
MEASURED_ON: HCV polymerase (Hepatitis C virus genotype 1b)
log10 of IC50: 2.28
--
COMPOUND: CNC(=O)c1nc(-c2ccc(F)cc2)c(COc2ccc(-c3nc4cc(C(=O)O)ccc4n3C3CCCCC3)c(F)c2)s1 [Example 429, hydrochloride]
MEASURED_ON: HCV polymerase (Hepatitis C virus genotype 1b)
log10 of IC50: 1.23
--
COMPOUND: CSc1ccc(-c2ccc(Cl)cc2COc2ccc(-c3nc4cc(C(=O)O)ccc4n3C3CCCCC3)cc2)cc1
MEASURED_ON: HCV polymerase (Hepatitis C virus genotype 1b)
log10 of IC50: 1.74
--
COMPOUND: O=C(O)c1ccc2c(c1)nc(-c1ccc(OCc3cc(C(=O)N4CCC(O)CC4)ccc3-c3ccc(Cl)cc3)cc1F)n2C1CCCC1 [Example 411, hydrochloride]
MEASURED_ON: HCV polymerase (Hepatitis C virus genotype 1b)
log10 of IC50: 1.18
--
COMPOUND: O=C(O)c1ccc2c(c1)nc(-c1ccc(OCc3cc(C(=O)NCCO)ccc3-c3ccc(Cl)cc3)cc1F)n2C1CCCCC1
MEASURED_ON: HCV polymerase (Hepatitis C virus genotype 1b)
log10 of IC50: 1.11
--
COMPOUND: COc1ccc(-c2ccc(Cl)cc2)c(COc2ccc(-c3nc4cc(C(=O)O)ccc4n3C3CCCCC3)cc2)c1
MEASURED_ON: HCV polymerase (Hepatitis C virus genotype 1b)
log10 of IC50: 1.28
--
COMPOUND: O=C(O)c1ccc2c(c1)nc(-c1ccc(OC[C@@H]3CCCN3Cc3ccccc3)cc1)n2C1CCCCC1 [Example 165, hydrochloride]
MEASURED_ON: HCV polymerase (Hepatitis C virus genotype 1b)
log10 of IC50: 2.76
